Attribution: ChEMBL document CHEMBL1141493

test: AUC in rat at 10 mg/kg, po; assay type: ADME, organism-based; parameters: dose 10 mg/kg, route oral; settings: plasma
Assay Readout: AUC (µM·h)

Smiles Record	Unit Info	AUC
CC[C@@H](Nc1c(Nc2cccc(C(=O)N(C)C)c2O)c(=O)c1=O)c1cc(Cl)co1	µM·h	21.5

P = CC[C@@H](Nc1c(Nc2cccc(C(=O)N(C)C)c2O)c(=O)c1=O)c1cc(Br)co1
Q = CC[C@@H](Nc1c(Nc2cccc(C(=O)N(C)C)c2O)c(=O)c1=O)c1cc(C)on1
Ask | Between P and Q , which one shows the larger AUC value? API: response body contains the label of the selected item.
Reply | P

----------
molecular target: C-X-C chemokine receptor type 1 (Homo sapiens)
Sequence (P25024 whole entry): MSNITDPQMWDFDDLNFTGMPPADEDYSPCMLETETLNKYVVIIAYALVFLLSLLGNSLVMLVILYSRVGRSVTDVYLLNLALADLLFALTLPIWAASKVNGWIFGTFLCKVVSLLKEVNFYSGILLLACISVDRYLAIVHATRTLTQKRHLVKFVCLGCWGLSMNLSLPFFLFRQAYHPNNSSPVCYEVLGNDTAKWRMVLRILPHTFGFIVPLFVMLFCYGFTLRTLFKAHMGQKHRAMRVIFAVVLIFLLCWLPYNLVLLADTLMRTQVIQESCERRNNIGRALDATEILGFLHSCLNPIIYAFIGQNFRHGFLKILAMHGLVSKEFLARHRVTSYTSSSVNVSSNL
Assay Readout: IC50 (nM)

Compound	IC50, nM
CCC(Nc1c(Nc2cccc(C(=O)N(C)C)c2O)c(=O)c1=O)c1cc(C)on1 (centres undefined)	224
CCC(Nc1c(Nc2cccc(C(=O)N(C)C)c2O)c(=O)c1=O)c1ccoc1 (centres undefined)	812
CCC(Nc1c(Nc2cccc(C(=O)N(C)C)c2O)c(=O)c1=O)c1ncco1 (centres undefined)	795
CCC(Nc1c(Nc2cccc(C(=O)N(C)C)c2O)c(=O)c1=O)c1cc2ccccc2o1 (centres undefined)	412
CCC(Nc1c(Nc2cccc(C(=O)N(C)C)c2O)c(=O)c1=O)c1ccsc1 (centres undefined)	165
CCC(Nc1c(Nc2cccc(C(=O)N(C)C)c2O)c(=O)c1=O)c1cc(-c2ccccc2)co1 (centres undefined)	150
CCC(Nc1c(Nc2cccc(C(=O)N(C)C)c2O)c(=O)c1=O)c1nccs1 (centres undefined)	703
CCC(Nc1c(Nc2cccc(C(=O)N(C)C)c2O)c(=O)c1=O)c1ccc(Cl)s1 (centres undefined)	1110
CC[C@@H](Nc1c(Nc2cccc(C(=O)N(C)C)c2O)c(=O)c1=O)c1ccccn1	148

P = CCC(Nc1c(Nc2cccc(C(=O)N(C)C)c2O)c(=O)c1=O)c1ccc(Br)o1 (centres undefined)
Q = CC[C@@H](Nc1c(Nc2cccc(C(=O)N(C)C)c2O)c(=O)c1=O)c1cc(C)on1
R = CCc1ccc(C(CC)Nc2c(Nc3cccc(C(=O)N(C)C)c3O)c(=O)c2=O)o1 (centres undefined)
S = CC[C@@H](Nc1c(Nc2cccc(C(=O)N(C)C)c2O)c(=O)c1=O)c1cc(Br)co1
T = CCC(Nc1c(Nc2cccc(C(=O)N(C)C)c2O)c(=O)c1=O)c1ccno1 (centres undefined)
Ask | Which order do these items take when sorted by rising IC50? List them. The labels, placed in the requested order, form the answer.
Reply | S, Q, T, P, R
